- assayedTarget: androgen receptor (Homo sapiens, UniProt P10275)
- Sequence (P10275 1-920 Q868H): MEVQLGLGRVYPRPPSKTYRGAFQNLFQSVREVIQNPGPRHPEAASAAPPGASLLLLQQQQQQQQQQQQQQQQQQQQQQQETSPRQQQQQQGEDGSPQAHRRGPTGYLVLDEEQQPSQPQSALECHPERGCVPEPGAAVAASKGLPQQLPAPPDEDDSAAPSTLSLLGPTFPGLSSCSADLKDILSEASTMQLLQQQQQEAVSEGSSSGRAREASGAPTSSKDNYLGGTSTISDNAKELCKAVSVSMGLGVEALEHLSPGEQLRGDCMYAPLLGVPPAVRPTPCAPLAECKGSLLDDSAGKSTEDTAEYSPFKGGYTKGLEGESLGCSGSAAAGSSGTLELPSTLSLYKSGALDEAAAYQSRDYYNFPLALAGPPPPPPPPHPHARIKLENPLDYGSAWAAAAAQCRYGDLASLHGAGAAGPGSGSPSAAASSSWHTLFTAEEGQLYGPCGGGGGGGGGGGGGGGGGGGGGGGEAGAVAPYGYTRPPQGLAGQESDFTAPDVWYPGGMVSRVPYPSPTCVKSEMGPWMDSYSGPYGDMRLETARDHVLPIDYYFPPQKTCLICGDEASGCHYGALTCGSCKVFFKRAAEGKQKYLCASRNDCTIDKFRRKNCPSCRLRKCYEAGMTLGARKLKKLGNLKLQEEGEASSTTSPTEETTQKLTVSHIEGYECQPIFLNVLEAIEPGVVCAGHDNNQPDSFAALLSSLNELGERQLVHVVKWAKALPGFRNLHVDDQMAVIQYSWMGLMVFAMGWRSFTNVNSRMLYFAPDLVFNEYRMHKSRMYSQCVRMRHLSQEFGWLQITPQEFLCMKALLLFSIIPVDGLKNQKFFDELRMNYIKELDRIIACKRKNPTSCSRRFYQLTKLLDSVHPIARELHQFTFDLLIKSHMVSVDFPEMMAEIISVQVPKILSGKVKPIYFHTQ
- protocolText: AR antagonist cell assay (MDA-MB453-MMTV clone 54-19 luciferase reporter, 100 pM DHT)
- Type: cell-based
- studyConditions: MDA-MB453-MMTV clone 54-19, inhibition of 100 pM DHT induction, 17 hr; mean of multiple tests; read-out: AR Cell IC50
outcomeMeasure: IC50 (nM)

INSERT INTO results (compound, resultmodifier, measuredvalue) VALUES
  ('CC(C)CCNC(=O)C(CC(C)C)Oc1ccc(C#N)c(C(F)(F)F)c1 (stereo not shown)', '>', 1000),
  ('CCCC(Oc1ccc(C#N)c(C(F)(F)F)c1)C(=O)NCc1ccccc1OCC (stereo not shown)', '>', 1000),
  ('CC(C)CC(Oc1ccc(C#N)c(C(F)(F)F)c1)C(=O)NCCOc1ccccc1 (stereo not shown)', '>', 1000),
  ('CCC(COC)NC(=O)C(CC(C)C)Oc1ccc(C#N)c(C(F)(F)F)c1 (stereo not shown)', '>', 1000),
  ('CCCC(Oc1ccc(C#N)c(C(F)(F)F)c1)C(=O)NC(C)Cc1ccsc1 (stereo not shown)', '=', 815),
  ('CCCC(Oc1ccc(C#N)c(C(F)(F)F)c1)C(=O)NCc1cccc(C)c1 (stereo not shown)', '=', 105),
  ('CCCC(Oc1ccc(C#N)c(C(F)(F)F)c1)C(=O)N[C@@H](C)c1ccc(O)cc1 (stereo in doubt)', '=', 589),
  ('COc1ccc(CCNC(=O)C(CC(C)C)Oc2ccc(C#N)c(C(F)(F)F)c2)cc1 (stereo not shown) [Example 9]', '>', 1000),
  ('CC(C)CC(Oc1ccc(C#N)c(C(F)(F)F)c1)C(=O)N(CCO)C(C)C (stereo not shown)', '>', 1000),
  ('CC(C)CC(Oc1ccc(C#N)c(C(F)(F)F)c1)C(=O)NC1CCc2ccccc21 (stereo not shown)', '=', 836),
  ('CC(C)CNC(=O)C(CC(C)C)Oc1ccc(C#N)c(C(F)(F)F)c1 (stereo not shown)', '=', 534),
  ('CC(C)CC(Oc1ccc(C#N)c(C(F)(F)F)c1)C(=O)NCc1ccco1 (stereo not shown)', '>', 1000),
  ('CC(C)CC(Oc1ccc(C#N)c(C(F)(F)F)c1)C(=O)NCCc1ccc(O)cc1 (stereo not shown)', '=', 341),
  ('CCCC(Oc1ccc(C#N)c(C(F)(F)F)c1)C(=O)NC1CCc2ccccc21 (stereo not shown)', '=', 561),
  ('CCCC(Oc1ccc(C#N)c(C(F)(F)F)c1)C(=O)NCc1ccccc1 (stereo not shown)', '=', 57),
  ('CCCOCCCNC(=O)C(CC(C)C)Oc1ccc(C#N)c(C(F)(F)F)c1 (stereo not shown)', '>', 1000),
  ('CCCC(Oc1ccc(C#N)c(C(F)(F)F)c1)C(=O)NCCOc1ccccc1 (stereo not shown)', '=', 790),
  ('CC(C)CC(Oc1ccc(C#N)c(C(F)(F)F)c1)C(=O)NCc1ccc(O)c(O)c1 (stereo not shown)', '=', 976),
  ('CCC[C@@H](Oc1ccc(C#N)c(C(F)(F)F)c1)C(=O)NCc1ccccc1C', '=', 138),
  ('Cc1cccc(CNC(=O)C(CC(C)C)Oc2ccc(C#N)c(C(F)(F)F)c2)c1 (stereo not shown)', '>', 1000),
  ('CCCC(Oc1ccc(C#N)c(C(F)(F)F)c1)C(=O)NCc1ccc(C)cc1C (stereo not shown)', '>', 1000),
  ('COc1ccc(CNC(=O)C(CC(C)C)Oc2ccc(C#N)c(C(F)(F)F)c2)cc1 (stereo not shown) [Example 39]', '>', 1000),
  ('CC(C)C[C@@H](Oc1ccc(C#N)c(C(F)(F)F)c1)C(=O)NCc1ccccc1', '=', 140),
  ('CC(C)CC(Oc1ccc(C#N)c(C(F)(F)F)c1)C(=O)NCc1ccc2nsnc2c1 (stereo not shown)', '>', 1000),
  ('CCCC(Oc1ccc(C#N)c(C(F)(F)F)c1)C(=O)NCCc1ccc(O)cc1 (stereo not shown)', '=', 77),
  ('CC(C)CC(Oc1ccc(C#N)c(C(F)(F)F)c1)C(=O)N[C@@H](C)c1ccc(O)cc1 (stereo in doubt)', '=', 44),
  ('CCN(CCOC)C(=O)C(CC(C)C)Oc1ccc(C#N)c(C(F)(F)F)c1 (stereo not shown)', '>', 1000),
  ('CSCCNC(=O)C(CC(C)C)Oc1ccc(C#N)c(C(F)(F)F)c1 (stereo not shown)', '>', 1000),
  ('CC(C)CC(Oc1ccc(C#N)c(C(F)(F)F)c1)C(=O)NCC(C)Oc1ccccc1 (stereo not shown)', '=', 299),
  ('CCCOCCNC(=O)C(CC(C)C)Oc1ccc(C#N)c(C(F)(F)F)c1 (stereo not shown)', '>', 1000),
  ('Cc1ccc(NC(=O)C(CC(C)C)Oc2ccc(C#N)c(C(F)(F)F)c2)cc1O (stereo not shown)', '=', 948),
  ('CCCC(Oc1ccc(C#N)c(Cl)c1)C(=O)NCCc1c[nH]c2ccccc12 (stereo not shown)', '=', 38),
  ('COc1ccccc1CNC(=O)C(CC(C)C)Oc1ccc(C#N)c(C(F)(F)F)c1 (stereo not shown)', '=', 768),
  ('CC(C)CC(Oc1ccc(C#N)c(C(F)(F)F)c1)C(=O)NCc1cccs1 (stereo not shown)', '>', 1000);
